Tested on: Mycobacterium tuberculosis
Test: Antituberculosis activity against Mycobacterium tuberculosis H37Rv assessed as complete growth inhibition at 20 uM after 5 days
Format: functional
Details: 120 h

# Molecule, inhibition at 20 µM
measured = [
    ("Nc1ccc(CNc2nc(N3CCCCC3)nc3ccccc23)cc1", "< 30%"),
    ("Fc1ccc(CNc2nc(C(F)(F)F)nc3ccccc23)cc1", "< 30%"),
    ("Clc1ccc(Cl)c(CNc2nc(N3CCCCC3)nc3ccccc23)c1", "97%"),
    ("Fc1ccc(CNc2nc(N3CCCCC3)nc3cccc(Cl)c23)cc1", "< 30%"),
    ("NC1CCN(c2nc(NCc3ccc(F)cc3)c3ccccc3n2)CC1", "< 30%"),
    ("Fc1ccc(CNc2nc(N3CCCCC3)nc3ncccc23)cc1", "37%"),
    ("Fc1ccc(CNc2ncnc3ccccc23)cc1", "< 30%"),
    ("CNc1nc(NCc2ccc(F)cc2)c2ccccc2n1", "44%"),
    ("Fc1ccc(Cn2cnc3c(N4CCCCC4)nc4ccccc4c32)cc1", "98%"),
    ("OCC1CCN(c2nc(NCc3ccc(F)cc3)c3ccccc3n2)CC1", "< 30%"),
    ("CC1CC(C)CN(c2nc(NCc3ccc(F)cc3)c3ccccc3n2)C1 (stereo not drawn)", "< 30%"),
    ("Fc1ccc(CNc2nc(N3CCNCC3)nc3ccccc23)cc1", "< 30%"),
    ("CNC1CCN(c2nc(NCc3ccc(F)cc3)c3ccccc3n2)CC1", "33%"),
    ("Cn1cnc2c(NCc3ccc(F)cc3)nc(N3CCCCC3)nc21", "< 30%"),
    ("COc1ccc2nc(N3CCCCC3)nc(NCc3ccc(F)cc3)c2c1", "97%"),
    ("CNc1nc(N2CCCCC2)nc2ccccc12", "< 30%"),
    ("O=C(O)C1CCN(c2nc(NCc3ccc(F)cc3)c3ccccc3n2)CC1", "< 30%"),
    ("Fc1ccc(CNc2nc(N3CCCCC3)nc3[nH]cnc23)cc1", "< 30%"),
]
